AST in Sera (IU/L) 2 hours After 0.5 MPK Injection by entry:
Test system: Aspartate Aminotransferase (AST)
Test details: Liver enzyme elevation in serum, AST
Assay type: in vivo
Condition set: cirRNA (SEQ ID NO: 1) LNPs; BALB/C mice; intravenous 0.5 MPK; 2 hours
Only the number, expressed in IU/L, is required.

See these solved cases before continuing.
CCCCCCCCCCC(CCCCCCCC)COC(=O)CCCCCN(CCCCCCCCOC(=O)C(CCCCCC)CCCCCCCC)CCOC(=O)NCCN(C)C (stereo not drawn)	193.77
CCCCC/C=C\C/C=C\CCCCCCCCN(CCCCCCCC(=O)OC(CCCCCCCC)CCCCCCCC)CCOC(=O)NCc1ncc[nH]1	136.00

Now for a further compound.
Provide only the value of recorded AST in Sera (IU/L) 2 hours After 0.5 MPK Injection for CCCCCCCCC(CCCCCC)C(=O)OCCCCCCCCN(CCCCCCCCOC(=O)C(CCCCCC)CCCCCCCC)CCCOC(=O)NCCN(C)C (stereo not drawn)
435.67
